B1: Ankyrin-2, residues 3571 to 3650; numbered along this chain, Q01484 (parent)
chain: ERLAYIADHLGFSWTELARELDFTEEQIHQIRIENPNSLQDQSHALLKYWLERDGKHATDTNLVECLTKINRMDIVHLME

variants of: B1; test: abundance fitness (aPCA) (normalised: wild type 0, dead -1); higher = more abundant; growth selection in yeast, the domain comes from the species named; conditions: Homo sapiens
Decision: abundance fitness compared against -0.09; not below it gives 1.0, below it gives 0.0.

// below: answered variants
I28Y: 0.0
L21G: 1.0
N37L: 1.0
E52F: 1.0
E26R: 1.0

# input Is reported abundance fitness greater than or equal to -0.09 here: L3G
# output 0.0

# input Is reported abundance fitness greater than or equal to -0.09 here: H29G
# output 1.0

# input Is reported abundance fitness greater than or equal to -0.09 here: D54F
# output 1.0

# input Is reported abundance fitness greater than or equal to -0.09 here: E16Q
# output 1.0

# input Is reported abundance fitness greater than or equal to -0.09 here: L17W
# output 0.0
